- protocol_description: PMB concentration in epithelial lining fluid (BAL, urea dilution method)
- Type: in vivo
- condition_label: human, plasma, iv, 50 mg, plasma, patients with BAL samples, treatment failure group; median [IQR]; read-out: Cmax
Where a SMILES comes first, the peptide text is derived from it. Bridges are numbered along the chain shown (N, C = ends). [ ]: non-standard residue; d: D form. The star is where a group is joined. X1 = CC[C@H](C)CCCCC(=O)*; Dab = NCC[C@H](N)C(=O)O
quantity_measured: Cmax

Request: Respond only with Cmax recorded for CC[C@H](C)CCCCC(=O)N[C@@H](CCN)C(=O)N[C@H](C(=O)N[C@@H](CCN)C(=O)N[C@H]1CCNC(=O)[C@H]([C@@H](C)O)NC(=O)[C@H](CCN)NC(=O)[C@H](CCN)NC(=O)[C@H](CC(C)C)NC(=O)[C@@H](Cc2ccccc2)NC(=O)[C@H](CCN)NC1=O)[C@@H](C)O [PMB, polymyxin B] (X1-[Dab]T[Dab][Dab][Dab][dF]L[Dab][Dab]T; lactam 4-C)
Result: 11100 ng/mL
